- Read-out: Fatty Acid-Binding Protein 1 (FABP1), FABP1 (gene 2168)
- TEST_DESCRIPTION: LTEA_HepaRG_FABP1: Life Technologies and Expression Analysis (LTEA) Assay for Fatty Acid-Binding Protein 1 (FABP1) using HepaRG (AID 2283494)
- CONDITION_INFO: mRNA level, 48 h; actives raise or lower the signal
Calls of active or inactive are those of the source. How the source made its calls: active means hit-call score of the fitted dose curve at least 0.9, where 1 is the maximum; inactive means score below 0.9.

{"COMPOUND": "CC(=O)S[C@@H]1CC2=CC(=O)CC[C@]2(C)[C@H]2CC[C@@]3(C)[C@@H](CC[C@@]34CCC(=O)O4)[C@H]12", "AC50": "54.4 µM (active)"}
{"COMPOUND": "c1ccc(Nc2ccccc2)cc1", "AC50": "inactive"}
{"COMPOUND": "N#CSCSc1nc2ccccc2s1", "AC50": "88.5 µM (active)"}
{"COMPOUND": "CCCOC(=O)c1ccc(C(=O)OCCC)nc1", "AC50": "inactive"}
{"COMPOUND": "C#C[C@]1(O)CC[C@H]2[C@@H]3CCC4=CC(=O)CC[C@@H]4[C@H]3CC[C@@]21CC", "AC50": "0.713 µM (active)"}
{"COMPOUND": "COCCO", "AC50": "inactive"}
{"COMPOUND": "CCOC(=O)NCCOc1ccc(Oc2ccccc2)cc1", "AC50": "79.1 µM (active)"}
{"COMPOUND": "CN(C)C(=O)Nc1ccc(Cl)c(Cl)c1", "AC50": "50 µM (active)"}
{"COMPOUND": "COc1c(Cl)ccc(Cl)c1C(=O)O", "AC50": "inactive"}
{"COMPOUND": "CCCOC(=O)NCCCN(C)C", "AC50": "inactive"}
{"COMPOUND": "CSC(=O)c1cccc2nnsc12", "AC50": "inactive"}
{"COMPOUND": "CC1(C)C(C=C(Cl)Cl)C1C(=O)OCc1cccc(Oc2ccccc2)c1 (configuration not stated)", "AC50": "inactive"}
{"COMPOUND": "CCCN(CCC)C(=O)SCC", "AC50": "inactive"}
{"COMPOUND": "S=C([S-])NCCNC(=S)[S-].[Mn+2]", "AC50": "3.58 µM (active)"}
{"COMPOUND": "CCSC(=O)N(CC(C)C)CC(C)C", "AC50": "inactive"}
{"COMPOUND": "c1ccc2[nH]c(-c3cscn3)nc2c1", "AC50": "inactive"}
{"COMPOUND": "O=C(c1ccc(O)cc1O)c1ccc(O)cc1O", "AC50": "inactive"}
{"COMPOUND": "CCC(C)OC(=O)N1CCCCC1CCO (configuration not stated)", "AC50": "inactive"}
{"COMPOUND": "C[C@]12C[C@H](O)[C@H]3[C@@H](CCC4=CC(=O)CC[C@@]43C)[C@@H]1CC[C@@H]2C(=O)CO", "AC50": "inactive"}
{"COMPOUND": "O=C(Nc1ccc([N+](=O)[O-])cc1Cl)c1cc(Cl)ccc1O", "AC50": "2.25 µM (active)"}
{"COMPOUND": "CC(C)(C)[C@@H](O)[C@@H](Cc1ccc(Cl)cc1)n1cncn1", "AC50": "50 µM (active)"}
{"COMPOUND": "CCCCOC(=O)C(C)Oc1ccc(Oc2ccc(C(F)(F)F)cn2)cc1 (configuration not stated)", "AC50": "inactive"}
{"COMPOUND": "CCCCOCCOCCOCc1cc2c(cc1CCC)OCO2", "AC50": "inactive"}
{"COMPOUND": "CCCCC(CC)CN1C(=O)C2C3C=CC(C3)C2C1=O (configuration not stated)", "AC50": "72.5 µM (active)"}
{"COMPOUND": "COC(=O)c1ccc(I)cc1S(=O)(=O)NC(=O)Nc1nc(C)nc(OC)n1", "AC50": "inactive"}
{"COMPOUND": "CCOC(=O)C(C)Oc1ccc(Oc2nc3ccc(Cl)cc3o2)cc1 (configuration not stated)", "AC50": "inactive"}
{"COMPOUND": "CCCN(CCC)c1c([N+](=O)[O-])cc(C(F)(F)F)c(N)c1[N+](=O)[O-]", "AC50": "24.9 µM (active)"}
